test system: HEK-293T; assay: Multiplex assay against HEK293T; assay type: toxicity, cell-based; settings: human, 48 h, 1 µM, compound concentration 1 uM, replicate 1

| compound | readout.units | Population Apoptotic (%) |
| --- | --- | --- |
| Cc1c(CC(=O)O)c2cccnc2n1Cc1ccc(S(C)(=O)=O)cc1C(F)(F)F | % | 16 |
| Cc1cccc(NC(=O)CN2CCC(c3ccccn3)CC2)c1.Cl.Cl | % | 30 |
| CCCCCC(O)/C=C/[C@H]1C(=O)CC(O)C1C/C=C\CCCC(=O)O (stereo partly specified) | % | 29 |
| COc1ccccc1N1CCN(C[C@@H](C(=O)NC(C)(C)C)c2ccccc2)CC1.Cl.Cl | % | 22 |
| Cc1cnc(-c2cc(N3CCN(C(=O)CCS(C)(=O)=O)CC3)ncc2Cl)c(C)c1 | % | 27 |
| N#Cc1cc(F)cc(-c2nc(-c3ccc(F)cn3)no2)c1 | % | 35 |
| CN1CCN(c2cc(-c3ccccc3)nc(N)n2)CC1 | % | 23 |
| NCCc1cn(S(=O)(=O)c2c(Cl)nc3sccn23)c2ccccc12.O=C(O)C(=O)O | % | 23 |
| COc1cccc2c1c(NS(=O)(=O)c1ccc(Cl)s1)nn2Cc1cccc(CNC(=O)C(C)(C)O)c1 | % | 16 |
| CCc1cc2cc(NS(=O)(=O)c3ccc(C#N)cc3)ccc2n(CC)c1=O | % | 30 |
| Cc1noc(-c2ccc(-c3ccc(CC(=O)O)cc3)cc2)c1NC(=O)O[C@H](C)c1ccccc1Cl | % | 17 |
